Taken from the RNAGym collection of RNA variant scans (doi:10.7554/elife.80360).

B1: HDV Ribozyme (parent)
chain: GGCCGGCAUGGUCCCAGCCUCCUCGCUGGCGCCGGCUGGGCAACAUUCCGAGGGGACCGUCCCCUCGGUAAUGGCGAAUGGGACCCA

variants of: B1; test: self-cleavage, relative activity (ratio to wild type); higher = more cleavage; co-transcriptional
Answer each item with its documented self-cleavage.
Output: the number by itself.

Query C24U C57A yields self-cleavage of 0.831

Query C13U C41G yields self-cleavage of 0.739

Query U12A U47C yields self-cleavage of 0.332

Query G17C A70G yields self-cleavage of 0.346

Query A51U C61A yields self-cleavage of 0.938

Query A16C G54A yields self-cleavage of 0.866

Query G53C C63A yields self-cleavage of 1.06

Query G1C U65G yields self-cleavage of 0

Query G6A C32U yields self-cleavage of 1.12

Query C32A G34C yields self-cleavage of 0.208

Query G29U C61U yields self-cleavage of 0.122

Query G1C C85A yields self-cleavage of 0.161

Query "A42C" yields self-cleavage of 0.333

Query G11C G17C yields self-cleavage of 0.0536

Query G35C G82U yields self-cleavage of 0.0723

Query U65A C66G yields self-cleavage of 0.932

Query C33U C41A yields self-cleavage of 0.7

Query U12C G31A yields self-cleavage of 0.237

Query G31A C32A yields self-cleavage of 0.0941

Query C7U A71G yields self-cleavage of 0.931

Query G34A U79C yields self-cleavage of 0.0773

Query A45C C84U yields self-cleavage of 0.499

Query G81U G82U yields self-cleavage of 0.211

Query C13G G50A yields self-cleavage of 0.131

Query G5C A70C yields self-cleavage of 0.158

Query U46C U79C yields self-cleavage of 0.432

Query U47G G50C yields self-cleavage of 0.831

Query U12G G35C yields self-cleavage of 0.151

Query A42U C48U yields self-cleavage of 0.506

Query U12G C57A yields self-cleavage of 0.985

Query U47C U65G yields self-cleavage of 0.856

Query C33A G55U yields self-cleavage of 0.349

Query C49G C62A yields self-cleavage of 0.739

Query A42G G68U yields self-cleavage of 0.403

Query G38A G55U yields self-cleavage of 0.19

Query C14G G34U yields self-cleavage of 0.0594

Query G2A G25C yields self-cleavage of 0.0744

Query C24G G31A yields self-cleavage of 0.0594

Query C7U G25U yields self-cleavage of 0.203

Query G6U C32A yields self-cleavage of 1.08

Query C21A A56C yields self-cleavage of 0.0898

Query C30A C33U yields self-cleavage of 0.15

Query G6U C21U yields self-cleavage of 0.122

Query C4A C18A yields self-cleavage of 0.0277

Query G34A G52A yields self-cleavage of 0.286

Query A8C A77G yields self-cleavage of 0.798

Query G11C G68U yields self-cleavage of 0.291

Query "G55C" yields self-cleavage of 1.02

Query G5A U65G yields self-cleavage of 0

Query G31A A78C yields self-cleavage of 0.169

Query U20C G55U yields self-cleavage of 0.199

Query A8G G39U yields self-cleavage of 0.54

Query U72G A83U yields self-cleavage of 0.166

Query C63A C64U yields self-cleavage of 0.903

Query C18U A45C yields self-cleavage of 0.0755

Query G28U G34U yields self-cleavage of 0.117

Query G40C G52C yields self-cleavage of 0.0573

Query G1A U37A yields self-cleavage of 0.161

Query U9C U20A yields self-cleavage of 0

Query C3G G10A yields self-cleavage of 0.107

Query C32A C58A yields self-cleavage of 0.208

Query G1A G67C yields self-cleavage of 0

Query G74A U79G yields self-cleavage of 0.356

Query C30G C57G yields self-cleavage of 0.208

Query U12C C44A yields self-cleavage of 0.252

Query C18G C86G yields self-cleavage of 0.0831

Query G52U G76C yields self-cleavage of 0.921

Query G52U C61U yields self-cleavage of 0.936

Query U9G U65A yields self-cleavage of 1.27

Query G29A G68C yields self-cleavage of 0.111

Query C32G C86G yields self-cleavage of 0.119

Query C14U G17A yields self-cleavage of 0.514

Query C58A G73C yields self-cleavage of 0.68

Query G5C U72G yields self-cleavage of 0.0831

Query G11A C62A yields self-cleavage of 0.352

Query U12G C22U yields self-cleavage of 0.256

Query G28C A70U yields self-cleavage of 0.101

Query A43G A77G yields self-cleavage of 0.332

Query A16U C36G yields self-cleavage of 0.0519

Query G39U A78C yields self-cleavage of 0.13

Query G6C G80C yields self-cleavage of 0.172

Query C22U G82A yields self-cleavage of 0.101

Query G68A U72G yields self-cleavage of 0.312

Query A45C C49G yields self-cleavage of 0.492

Query A45U G73C yields self-cleavage of 0.62

Query C58A C62U yields self-cleavage of 1.08

Query G50A G82U yields self-cleavage of 0.364

Query C85U A87C yields self-cleavage of 0.933

Query G35U G52A yields self-cleavage of 0.483

Query A42G C57U yields self-cleavage of 0.527

Query C3G C75G yields self-cleavage of 0.0496
